# system: USP28 (His-tagged USP28-FL-mammalian) (Homo sapiens)
# Construct: Expression of USP28 (1-1077)-TEV-6*His (pTT5 vector) was carried out in Expi293f cells; made in house; host or cells: Expi293F cells (pTT5 vector)
# assay_text: Ubiquitin-Rhodamine 110 Assay for USP28 Activity, Example A-1(a)
# Assay type: biochemical
# measurement_parameters: biochemical IC50 range, Ubiquitin-Rhodamine 110 assay, read-out: USP28 A-1(a)
pIC50: −log10 of the molar value.
In this section we review reported pIC50 values for a set of molecules.
measure_name: pIC50

>>> print(df.to_string())
                            smiles_notation  measure_name         value
0  O=C(N[C@H]1COc2cc(N3CCNCC3)ccc2C1)c1ccc(NCc2cccc3cn[nH]c23)nc1         pIC50  5.70 to 6.70
1  Cc1ccc2c(N)c(C(=O)N[C@H]3COc4cc(N5CC[C@@]6(CCCN6)C5)cc(F)c4C3)sc2n1         pIC50  7.30 to 9.00
2  Cc1ccc2c(N)c(C(=O)N[C@H]3COc4nc(N5C[C@H](CF)[C@H](N)C5)ccc4C3)sc2n1         pIC50  6.70 to 7.30
3  Cc1ccc2c(N)c(C(=O)N[C@H]3COc4cc(N5C[C@@H](N)[C@]6(CCCCO6)C5)ccc4C3)sc2n1         pIC50  7.30 to 9.00

----------
# system: USP25 (USP25-His6, Boston Biochem E-546) (Homo sapiens)
# Construct: His6 (C); purchased Boston Biochem E-546
# Sequence (Q9UHP3 1-1055): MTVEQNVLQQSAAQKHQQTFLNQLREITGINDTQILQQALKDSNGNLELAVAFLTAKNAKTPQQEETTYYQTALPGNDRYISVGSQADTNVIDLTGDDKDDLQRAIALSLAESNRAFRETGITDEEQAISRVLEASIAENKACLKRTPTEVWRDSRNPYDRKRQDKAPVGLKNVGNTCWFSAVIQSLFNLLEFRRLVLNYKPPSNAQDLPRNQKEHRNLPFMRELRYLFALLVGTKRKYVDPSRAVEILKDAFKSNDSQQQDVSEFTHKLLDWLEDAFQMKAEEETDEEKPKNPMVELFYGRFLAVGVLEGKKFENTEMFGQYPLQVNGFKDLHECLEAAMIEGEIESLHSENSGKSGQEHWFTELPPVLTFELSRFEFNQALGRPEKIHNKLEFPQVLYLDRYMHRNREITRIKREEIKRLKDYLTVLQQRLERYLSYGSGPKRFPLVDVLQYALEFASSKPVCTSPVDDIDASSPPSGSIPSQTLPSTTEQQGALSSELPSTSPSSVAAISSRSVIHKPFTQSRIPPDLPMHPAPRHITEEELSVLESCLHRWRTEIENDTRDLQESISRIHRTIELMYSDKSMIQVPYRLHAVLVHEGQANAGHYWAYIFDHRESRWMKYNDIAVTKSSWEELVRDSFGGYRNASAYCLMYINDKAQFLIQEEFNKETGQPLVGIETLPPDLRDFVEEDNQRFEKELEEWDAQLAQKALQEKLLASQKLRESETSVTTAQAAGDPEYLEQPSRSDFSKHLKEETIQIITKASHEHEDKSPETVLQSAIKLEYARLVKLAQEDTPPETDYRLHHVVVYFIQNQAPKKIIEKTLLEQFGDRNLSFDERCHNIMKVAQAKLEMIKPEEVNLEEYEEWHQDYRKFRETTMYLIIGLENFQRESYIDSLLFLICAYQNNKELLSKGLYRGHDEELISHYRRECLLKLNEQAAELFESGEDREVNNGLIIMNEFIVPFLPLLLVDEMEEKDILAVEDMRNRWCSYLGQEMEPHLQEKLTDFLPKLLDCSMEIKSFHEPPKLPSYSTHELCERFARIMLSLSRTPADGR
# assay_text: Ubiquitin-Rhodamine 110 Assay for USP25 Activity, Example A-3
# Format: biochemical
# measurement_parameters: Ubiquitin-Rhodamine 110 assay, Example A-3; read-out: USP25 A-3 IC50 range
In this section we review reported IC50 values for a set of compounds.
measure_name: IC50

                                   compound  measure_name           value
0  Cc1cnc2c(N)c(C(=O)N[C@H]3CCc4cc(N5CCNCC5)c(F)cc4C3)sc2n1 (single isomer, unassigned)          IC50  200 to 2000 nM
1  Cc1ccc2c(N)c(C(=O)N[C@H]3CCc4nc(N5C[C@@H](CF)[C@H](N)C5)ccc4C3)sc2n1          IC50       > 2000 nM
2  [2H]C1([2H])c2c(F)cc(N3CCNCC3)cc2OC[C@H]1NC(=O)c1sc2nc(C)ccc2c1N (single isomer, unassigned)          IC50       > 2000 nM
3  CO[C@@]1(C)CN(c2ccc3c(n2)CC[C@H](NC(=O)c2sc4nc(C)ccc4c2N)C3)C[C@H]1N          IC50  200 to 2000 nM

----------
# system: USP28 (His-tagged USP28-FL-mammalian) (Homo sapiens)
# Construct: Expression of USP28 (1-1077)-TEV-6*His (pTT5 vector) was carried out in Expi293f cells; made in house; host or cells: Expi293F cells (pTT5 vector)
# assay_text: Ubiquitin-Rhodamine 110 Assay for USP28 Activity, Example A-1(a)
# Format: biochemical
# measurement_parameters: Ubiquitin-Rhodamine 110 assay, read-out: USP28 A-1(a) IC50 range
# Source text: Example A-1(a): Biochemical Assay: Ubiquitin-Rhodamine 110 Assay for USP28 Activity […] For assay formats Example A-1(a), A-1(b), and A-2, data were reported as percent inhibition compared with control wells based on the following equation: % inh=1−((FLU−AveLow)/(AveHigh−AveLow)) where FLU=measured Fluorescence, AveLow=average Fluorescence of no enzyme control (n=16), and AveHighh=average Fluorescence of DMSO control (n=16). […]
pIC50: −log10 of the molar value.
measure_name: pIC50

                                   compound  measure_name         value
0  Cc1ccc2c(N)c(C(=O)N[C@@H]3COc4cc(N5CCNCC5)ccc4[C@@H]3C)sc2n1 (single isomer, unassigned) [Example 11-18]         pIC50  5.70 to 6.70
1  Cc1cnc2c(N)c(C(=O)N[C@H]3CCc4c(C#N)c(N5CC6CCC(C5)N6)cc(F)c4C3)sc2n1 (single isomer, unassigned) [Example 14-19]         pIC50  7.30 to 9.00
2  CN[C@@H]1CCN(c2ccc3c(c2)CC[C@H](NC(=O)c2sc4nc(C)cnc4c2N)C3)C1 (single isomer, unassigned) [Example 11-27]         pIC50  6.70 to 7.30
3  Cc1cnc2c(N)c(C(=O)N[C@H]3CCc4cc(N5C[C@@H]6C[C@H]5CN6)ccc4C3)sc2n1 (single isomer, unassigned) [Example 11-29]         pIC50  6.70 to 7.30
4  Cc1ccc2c(N)c(C(=O)N[C@@H]3CCc4nc(N5C[C@@H](CF)[C@@H](N)C5)ncc4C3)sc2n1 [Example 445]         pIC50  5.70 to 6.70
5  [2H]C1([2H])c2c(F)cc(N3CCNCC3)cc2OC[C@H]1NC(=O)c1sc2nc(C)ccc2c1N (single isomer, unassigned) [Example 33-2]         pIC50  5.70 to 6.70

----------
In this section we review reported IC50 values for a set of compounds.
# system: USP28 (His-tagged USP28-FL-mammalian) (Homo sapiens)
# Construct: Expression of USP28 (1-1077)-TEV-6*His (pTT5 vector) was carried out in Expi293f cells; made in house; host or cells: Expi293F cells (pTT5 vector)
# Sequence (Q96RU2 1-1077): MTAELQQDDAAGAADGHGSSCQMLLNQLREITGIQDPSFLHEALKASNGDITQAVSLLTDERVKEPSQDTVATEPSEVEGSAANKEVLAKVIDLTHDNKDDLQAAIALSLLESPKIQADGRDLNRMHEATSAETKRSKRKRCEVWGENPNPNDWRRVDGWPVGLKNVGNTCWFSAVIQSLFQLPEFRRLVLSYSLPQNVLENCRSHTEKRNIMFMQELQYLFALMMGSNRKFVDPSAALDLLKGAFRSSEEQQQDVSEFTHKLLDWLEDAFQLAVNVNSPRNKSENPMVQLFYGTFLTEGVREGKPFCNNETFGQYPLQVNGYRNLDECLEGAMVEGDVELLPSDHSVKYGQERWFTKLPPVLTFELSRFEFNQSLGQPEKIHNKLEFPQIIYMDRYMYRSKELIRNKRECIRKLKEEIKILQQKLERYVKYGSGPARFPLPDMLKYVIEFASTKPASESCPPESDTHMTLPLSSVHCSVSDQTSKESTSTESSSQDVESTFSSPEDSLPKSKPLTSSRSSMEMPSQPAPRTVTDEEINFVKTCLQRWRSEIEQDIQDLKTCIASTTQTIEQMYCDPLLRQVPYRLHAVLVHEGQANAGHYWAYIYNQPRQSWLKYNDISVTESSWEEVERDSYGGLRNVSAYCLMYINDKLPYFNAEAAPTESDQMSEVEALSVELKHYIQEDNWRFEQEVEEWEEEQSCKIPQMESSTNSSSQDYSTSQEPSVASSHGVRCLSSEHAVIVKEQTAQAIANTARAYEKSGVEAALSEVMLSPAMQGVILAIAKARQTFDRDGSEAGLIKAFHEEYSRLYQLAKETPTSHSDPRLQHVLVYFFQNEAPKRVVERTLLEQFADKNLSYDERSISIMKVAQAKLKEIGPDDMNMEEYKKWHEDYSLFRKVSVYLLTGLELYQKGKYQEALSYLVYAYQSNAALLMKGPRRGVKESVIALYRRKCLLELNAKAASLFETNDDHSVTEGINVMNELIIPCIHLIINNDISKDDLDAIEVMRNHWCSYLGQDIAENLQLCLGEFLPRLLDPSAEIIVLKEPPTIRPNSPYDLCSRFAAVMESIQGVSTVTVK
# assay_text: Ubiquitin-Rhodamine 110 Assay for USP28 Activity, Example A-1(a)
# Format: biochemical
# measurement_parameters: Ubiquitin-Rhodamine 110 biochemical assay, read-out: USP28 A-1(a) IC50 range
# Source text: Example A-1(a): Biochemical Assay: Ubiquitin-Rhodamine 110 Assay for USP28 Activity […] For assay formats Example A-1(a), A-1(b), and A-2, data were reported as percent inhibition compared with control wells based on the following equation: % inh=1−((FLU−AveLow)/(AveHigh−AveLow)) where FLU=measured Fluorescence, AveLow=average Fluorescence of no enzyme control (n=16), and AveHighh=average Fluorescence of DMSO control (n=16). […]
measure_name: IC50

                             smiles_notation                                    system           value
 0  Cc1ccc2c(N)c(C(=O)N[C@H]3CCc4nc(N5CC[C@H](N)[C@H]5C(F)F)ccc4C3)sc2n1  USP28 (His-tagged USP28-FL-mammalian) (Homo sapiens)      1 to 50 nM
 1  CO[C@H]1CCCN(c2ccc3c(n2)CC[C@H](NC(=O)c2sc4nc(C)ccc4c2N)C3)C[C@H]1N  USP28 (His-tagged USP28-FL-mammalian) (Homo sapiens)  200 to 2000 nM
 2  COC[C@@H]1CN(c2ccc3c(n2)CC[C@H](NC(=O)c2sc4nc(C)c(F)cc4c2N)C3)C[C@@H]1N  USP28 (His-tagged USP28-FL-mammalian) (Homo sapiens)    50 to 200 nM
 3  CN[C@H]1CN(c2ccc3c(n2)CC[C@H](NC(=O)c2sc4nc(C)c(F)cc4c2N)C3)C[C@@H]1COC  USP28 (His-tagged USP28-FL-mammalian) (Homo sapiens)    50 to 200 nM
 4  CO[C@H]1CCCN(c2ccc3c(n2)CC[C@H](NC(=O)c2sc4nc(C)ccc4c2N)C3)C[C@@H]1N  USP28 (His-tagged USP28-FL-mammalian) (Homo sapiens)      1 to 50 nM
 5  CCO[C@H]1CN(c2ccc3c(n2)CC[C@H](NC(=O)c2sc4nc(C)cnc4c2N)C3)C[C@@H]1N  USP28 (His-tagged USP28-FL-mammalian) (Homo sapiens)  200 to 2000 nM
 6  CN[C@H]1CN(c2ccc3c(n2)CC[C@H](NC(=O)c2sc4nc(C)cnc4c2N)C3)C[C@@H]1OC  USP28 (His-tagged USP28-FL-mammalian) (Homo sapiens)    50 to 200 nM
 7  CN[C@@H]1CN(c2ccc3c(n2)CC[C@H](NC(=O)c2sc4nc(C)ccc4c2N)C3)C[C@@]12CCCCO2  USP28 (His-tagged USP28-FL-mammalian) (Homo sapiens)    50 to 200 nM
 8  Cc1cnc2c(N)c(C(=O)N[C@H]3CCc4nc(N5C[C@@H](N)C6(C5)OCCO6)ccc4C3)sc2n1  USP28 (His-tagged USP28-FL-mammalian) (Homo sapiens)  200 to 2000 nM
 9  CCN[C@@H]1CN(c2ccc3c(n2)CC[C@H](NC(=O)c2sc4nc(C)ccc4c2N)C3)C[C@H]1COC  USP28 (His-tagged USP28-FL-mammalian) (Homo sapiens)    50 to 200 nM
10  Cc1ccc2c(N)c(C(=O)N[C@H]3CCc4nc(N5C[C@@H](N)[C@]6(C5)OCC[C@H]6C)ccc4C3)sc2n1  USP28 (His-tagged USP28-FL-mammalian) (Homo sapiens)    50 to 200 nM
11  CN[C@H]1CN(c2ccc3c(n2)CC[C@H](NC(=O)c2sc4nc(C)cnc4c2N)C3)C[C@H]1OC  USP28 (His-tagged USP28-FL-mammalian) (Homo sapiens)  200 to 2000 nM
12  CO[C@H]1CN(c2ccc3c(n2)CC[C@H](NC(=O)c2sc4nc(C)cnc4c2N)C3)C[C@H]1N  USP28 (His-tagged USP28-FL-mammalian) (Homo sapiens)    50 to 200 nM
13  CN[C@H]1CN(c2ccc3c(n2)CC[C@H](NC(=O)c2sc4nc(C)ccc4c2N)C3)C[C@]12CCCCO2  USP28 (His-tagged USP28-FL-mammalian) (Homo sapiens)    50 to 200 nM

# credit: patent US12162888B2
